target: recombinant SAMHD1 (Homo sapiens, UniProt Q9Y3Z3); construct: His-tag (N); made in house; host or cells: E. coli BL21 (DE3); test: Enzyme-coupled malachite green assay, SAMHD1 in vitro activity (dGTP, ara-CTP, Cl-F-ara-ATP substrates); type: biochemical; conditions: substrate Cl-F-ara-ATP 50 μM with GTP 12.5 μM as activator; read-out: IC50 (μM) Cl-F-ara-ATP
Sequence (Q9Y3Z3 whole entry): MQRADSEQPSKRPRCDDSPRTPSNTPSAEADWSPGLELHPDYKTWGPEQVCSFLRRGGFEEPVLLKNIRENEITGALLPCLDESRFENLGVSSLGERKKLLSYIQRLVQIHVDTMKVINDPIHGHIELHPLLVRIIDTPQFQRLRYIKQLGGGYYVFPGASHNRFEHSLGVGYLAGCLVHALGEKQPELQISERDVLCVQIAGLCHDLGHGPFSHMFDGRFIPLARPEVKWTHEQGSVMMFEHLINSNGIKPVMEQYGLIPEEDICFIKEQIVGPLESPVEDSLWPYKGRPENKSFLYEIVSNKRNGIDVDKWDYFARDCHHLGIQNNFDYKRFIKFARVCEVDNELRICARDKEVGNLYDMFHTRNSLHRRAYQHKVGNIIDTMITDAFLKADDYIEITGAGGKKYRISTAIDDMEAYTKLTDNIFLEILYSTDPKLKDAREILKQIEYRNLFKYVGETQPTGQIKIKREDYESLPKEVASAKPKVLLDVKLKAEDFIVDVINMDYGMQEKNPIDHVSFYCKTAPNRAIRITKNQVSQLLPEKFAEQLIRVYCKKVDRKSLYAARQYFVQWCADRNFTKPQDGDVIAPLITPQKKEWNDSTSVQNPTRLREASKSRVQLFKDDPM
RECORDED METRIC: IC50

Request: Tell us which IC50 value is on record for "Nc1ccccc1-c1cn2ccnc2c(NCCc2ccccn2)n1"
Result: > 100 µM

More entries:
Request: Identify measured IC50 corresponding to "Clc1ccccc1-c1cn2ccnc2c(NCCc2ccccn2)n1"
Result: 5.8 µM

Request: Output IC50 of "c1ccc(CCNc2nc(-c3cccs3)cn3ccnc23)nc1"
Result: 2.6 µM

Request: Tell me its IC50 given "COc1ccccc1-c1cn2ccnc2c(NCCc2ccccn2)n1" as the entry.
Result: 4 µM

----------
biological target: recombinant SAMHD1 (Homo sapiens, UniProt Q9Y3Z3); construct: His-tag (N); assay: B4NPP direct SAMHD1 enzymatic assay; conditions: B4NPP substrate, Mn2+; global fit, mixed inhibition model
RECORDED METRIC: pKi
pKi (log units): -log10 of the concentration in mol/L.

Request: Find the measured pKi of "COc1ccccc1-c1cn2ccnc2c(NCCc2ccccn2)n1" and report it.
Result: 4.70

----------
biological target: recombinant SAMHD1 (Homo sapiens); construct: His-tag (N); made in house; host or cells: E. coli BL21 (DE3); experiment: Enzyme-coupled malachite green assay, SAMHD1 in vitro activity (dGTP, ara-CTP, Cl-F-ara-ATP substrates); type: biochemical; details: substrate dGTP 25 μM; read-out: IC50 (μM) dGTP
RECORDED METRIC: IC50

Request: Return IC50 (reported value) for this compound: "c1ccc(CCNc2nc(-c3cccs3)cn3ccnc23)nc1"
Result: 4.5 µM

Request: Assign IC50 to the following record: "Nc1ccccc1-c1cn2ccnc2c(NCCc2ccccn2)n1"
Result: > 100 µM

Request: Answer with reported IC50 of "Clc1ccccc1-c1cn2ccnc2c(NCCc2ccccn2)n1"
Result: 9.1 µM

Attention now shifts to the item below.
Request: Check the records and state IC50 for "COc1ccccc1-c1cn2ccnc2c(NCCc2ccccn2)n1"
Result: 4.9 µM

----------
biological target: recombinant SAMHD1 (Homo sapiens, UniProt Q9Y3Z3); construct: His-tag (N); made in house; host or cells: E. coli BL21 (DE3); test: Enzyme-coupled malachite green assay, SAMHD1 in vitro activity (dGTP, ara-CTP, Cl-F-ara-ATP substrates); type: biochemical; details: substrate ara-CTP 200 μM with dGTPαS 3.125 μM as activator; read-out: IC50 (μM) araCTP
Below: a set of entries, each annotated with reported IC50.
Give the value in µM but do not write µM after it.

Request: State its IC50 for this compound: c1ccc(CCNc2nc(-c3cccs3)cn3ccnc23)nc1 [TH7528]
Result: 2.8

Request: Return value of IC50 for input Clc1ccccc1-c1cn2ccnc2c(NCCc2ccccn2)n1 [TH6342] , no commentary.
Result: 11

Kindly consider the entry below.
Request: # return recorded IC50 for input COc1ccccc1-c1cn2ccnc2c(NCCc2ccccn2)n1 [TH7127]
Result: 4.5
